Just for reference, ChEMBL document CHEMBL3739352 is where these values come from.

Test system: Rattus norvegicus
Experiment: Neurotoxicity in Sprague-Dawley rat at 30 mg/kg, po after 0.5 hrs
Format: toxicity, organism-based
Details: in vivo
valueType: Activity

Field: example entries. Status: answers known.
CC(CO)NC(=O)/C=C/c1ccccc1 (racemic) : Non-toxic
CC(=O)OCC(C)NC(=O)/C=C/c1ccccc1 (racemic) : Non-toxic
CC(C)C(CO)NC(=O)/C=C/c1ccccc1 (racemic) : Non-toxic
CC(=O)OC(C)CNC(=O)/C=C/c1ccccc1 (racemic) : Non-toxic

Inquiry: Can you share its Activity? I mean this molecule: O=C(/C=C/c1ccccc1)N1CCC(O)CC1
Reply text: Non-toxic

Inquiry: Can you share its Activity? I mean this molecule: CC(O)CNC(=O)/C=C/c1ccccc1 (racemic)
Reply text: Non-toxic

Inquiry: Can you share its Activity? I mean this molecule: CCC(O)CNC(=O)/C=C/c1ccccc1 (racemic)
Reply text: Non-toxic
